The reported measurements were obtained from PubChem BioAssay (EPA / NIEHS).

assay: ATG_CRE_CIS: Attagene CIS-FACTORIAL HepG2 Assay for human cAMP Responsive Element (CRE) binding protein 3 (AID 2282926); settings: HepG2 CRE cis-reporter, Attagene multiplexed mRNA; actives raise or lower the signal
Calls of active or inactive are those of the source. Rule for the calls: active = hit-call score of the fitted dose curve at least 0.9, where 1 is the maximum; inactive = score below 0.9.
Just give me one of these, please: YES (active), NO (inactive)

Per the records of this test, what outcome belongs to OCC(O)CC(F)(F)C(F)(F)C(F)(F)C(F)(F)F (centres undefined) ?
NO

Could you please tell me the result logged for `OCCCC(F)(F)C(F)(F)C(F)(F)C(F)(F)C(F)(F)C(F)(F)C(F)(F)C(F)(F)F` in this assay?
NO

Which outcome was assigned to `Nc1cc([N+](=O)[O-])cc(Cl)c1O` in this test?
NO

I would be grateful if you could indicate the recorded call for CCC(=O)OC(C)c1ccccc1 (centres undefined) .
NO

Kindly provide the recorded test outcome for the following compound: `Nc1cccnc1N`
NO

Give the logged outcome of this assay for the following compound: `FC(F)(F)C(F)(F)C(F)(F)C(F)(F)C(F)(F)C(F)(F)C(F)(F)CCI`
NO

Would you mind telling me which call this test gave `O=C1C=CC(=O)N1c1ccc(Cc2ccc(N3C(=O)C=CC3=O)cc2)cc1` ?
YES

Assay result, entry `O=C(Cl)c1ccc(Cl)cc1Cl` — outcome?
NO

// outcome(item) with item = `CC1=CCC(=O)O1`
NO

----------
read-out: Interleukin-1 alpha (IL1a), IL1A (gene 3552); experiment: BSK_KF3CT_IL1a: BioMAP Diversity Plus: KF3CT Assay for Interleukin-1 alpha (IL1a) Biomarker Activity (AID 2283070); settings: primary human keratinocytes with fibroblasts; actives raise or lower the signal
Calls of active or inactive are those of the source. Rule for the calls: active = hit-call score of the fitted dose curve at least 0.9, where 1 is the maximum; inactive = score below 0.9.
measureName: AC50

Illustrative cases are given below, each with its answer.
sampleSmiles: NCC(F)(F)C(F)(F)C(F)(F)C(F)(F)C(F)(F)C(F)(F)C(F)(F)C(F)(F)F
recordedResult: inactive
--
sampleSmiles: CCN(CC)c1ccc(C=O)cc1
recordedResult: inactive
--
sampleSmiles: CCN(CC)c1ccc(N=Nc2ccccc2)cc1
recordedResult: inactive
--
sampleSmiles: O=C1c2c(O)ccc(Nc3ccc(CCO)cc3)c2C(=O)c2c([N+](=O)[O-])ccc(O)c21
recordedResult: inactive
--
sampleSmiles: Cc1cc(C)c(O)c(C(C)(C)C)c1
recordedResult: 31.1 µM (active)

Input `OCCCCC(F)(F)C(F)(F)C(F)(F)C(F)(F)F` , output reported AC50.
inactive

Provide AC50 value for the following molecule: `CCOC(C=C(C)CCC=C(C)C)OCC`
26 µM (active)

Identify AC50 associated with the molecule `CC(C)(C)c1cc(CCC(=O)NCCCCCCNC(=O)CCc2cc(C(C)(C)C)c(O)c(C(C)(C)C)c2)cc(C(C)(C)C)c1O`
inactive

----------
read-out: TIMP metallopeptidase inhibitor 2 (TIMP2), TIMP2 (gene 7077); assay: BSK_KF3CT_TIMP2: BioMAP Diversity Plus: KF3CT Assay for TIMP metallopeptidase inhibitor 2 (TIMP2) Biomarker Activity (AID 2283071); conditions: primary human keratinocytes with fibroblasts; actives raise or lower the signal
Activity calls are given as the source filed them. The calls were made as follows: active = hit-call score of the fitted dose curve at least 0.9, where 1 is the maximum; inactive = score below 0.9.
Your reply should match one of these outcome classes. active, inactive

Fill in: this test's call for `C=CC(=O)OCCC(F)(F)C(F)(F)C(F)(F)C(F)(F)F` is ___
inactive

Record request — test call for `O=C(O)CCC(F)(F)C(F)(F)C(F)(F)C(F)(F)C(F)(F)C(F)(F)C(F)(F)F`
inactive

Called result for `Nc1cc([N+](=O)[O-])cc(Cl)c1O`
inactive

State the result this test recorded for `O=C1C=CC(=O)N1c1ccc(Cc2ccc(N3C(=O)C=CC3=O)cc2)cc1` .
active

Just curious, what result did `NCC(F)(F)C(F)(F)C(F)(F)C(F)(F)C(F)(F)C(F)(F)C(F)(F)C(F)(F)F` get here?
inactive

----------
assay: Tanguay_ZF_120hpf_DP24: Oregon State University Tanguay Lab 24 Hour Post-fertilization zebrafish Assay for Delayed Development (AID 2284390)
Calls of active or inactive are those of the source. How the source made its calls: active means hit-call score of the fitted dose curve at least 0.9, where 1 is the maximum; inactive means score below 0.9.
Give your call using only these classes: T = active, F = inactive

Short answer needed: outcome of this test for `FC(F)(F)C(F)(F)C(F)(F)C(F)(F)C(F)(F)C(F)(F)CC[Si](Cl)(Cl)Cl` ?
F

Status in this test for `O=S(=O)(OCC(F)(F)F)C(F)(F)C(F)(F)C(F)(F)C(F)(F)F` ?
F

Outcome? `C[Si](Cl)(Cl)CCC(F)(F)C(F)(F)C(F)(F)C(F)(F)C(F)(F)C(F)(F)F`
F

Test call, this compound: `NS(=O)(=O)C(F)(F)C(F)(F)C(F)(F)C(F)(F)C(F)(F)C(F)(F)F`
T

Any idea what this test logged for `OCC(F)(F)C(F)(F)C(F)(F)C(F)(F)C(F)(F)C(F)(F)CO` ?
F

Dear colleague, could you share the recorded outcome for `CNS(=O)(=O)C(F)(F)C(F)(F)C(F)(F)C(F)(F)C(F)(F)C(F)(F)C(F)(F)C(F)(F)F` when you have a moment?
F

State the result this test recorded for `NC(=O)C(F)(F)C(F)(F)C(F)(F)F` .
F

Hi team, can someone confirm the assay call for `C=CC(=O)OCC(F)(F)C(F)(F)C(F)(F)C(F)(F)C(F)(F)C(F)(F)C(F)(F)C(F)F` ?
F

# lookup: test call for `OCC(F)(F)C(F)(F)C(F)(F)CO`
F

Which outcome did this test record for the compound `O=C(F)C1(F)C(F)(F)C(F)(F)C(F)(F)C(F)(F)C1(F)F` ?
F

What did the test return for `NC(=O)C(F)(F)C(F)(F)C(F)(F)C(F)F` ?
F

----------
assay: ACEA_ER_80hr: ACEA Biosciences xCELLigence Real-Time Cell Analysis on Estrogen Receptor Agonism for Proliferation (AID 2282667); conditions: T47D proliferation, impedance (xCELLigence), 80 h
Inconclusive results are not listed. The source made the active and inactive calls. Rule for the calls: active = hit-call score of the fitted dose curve at least 0.9, where 1 is the maximum; inconclusive = response in the unintended direction; inactive = score below 0.9.
Please answer using one outcome listed in active, inactive

Name the outcome recorded for `CCOC(=O)CC(=O)C(F)(F)C(F)(F)F` in the assay.
active

Record request — test call for `Cc1cc(C)c(O)c(C(C)(C)C)c1`
inactive

Hey, what did the test say about `Cc1ccc(O)c(-n2nc3ccccc3n2)c1` ?
inactive

Each compound tested received a call. Report the one for OCCC(O)CO (centres undefined) .
inactive

Recorded call for `O=C(O)C(F)(F)C(F)(F)C(F)(F)C(=O)O` ?
inactive

Check the results log: what was the call for `CC(C)OC(=O)COc1ccc(Cl)cc1Cl` ?
inactive

Which outcome was entered for the compound CC1=CCC2C(=O)OC(=O)C2C1 (centres undefined) in this test?
inactive

Per the assay record, what outcome was assigned to `CCCCCCCCCCCC(=O)Cl` ?
inactive

Just curious, what result did CCc1cccc(C)c1N(C(=O)C(=O)O)C(C)COC (centres undefined) get here?
inactive

Please let me know the test result on file for `N#CCCOCCC#N` .
inactive

Please state the recorded outcome for this compound: `CNS(=O)(=O)C(F)(F)C(F)(F)C(F)(F)C(F)(F)C(F)(F)C(F)(F)C(F)(F)C(F)(F)F`
inactive

What was the test verdict on `O=C1c2ccccc2C(=O)c2c(Cl)cccc21` ?
inactive

Name the outcome recorded for `O=C1C=CC(=O)N1c1ccc(Cc2ccc(N3C(=O)C=CC3=O)cc2)cc1` in the assay.
inactive

What was the test verdict on `CCN(CCO)S(=O)(=O)C(F)(F)C(F)(F)C(F)(F)C(F)(F)C(F)(F)C(F)(F)C(F)(F)C(F)(F)F` ?
inactive

Please let me know the test result on file for `NCC(F)(F)C(F)(F)C(F)(F)C(F)(F)C(F)(F)C(F)(F)C(F)(F)C(F)(F)F` .
inactive

Please state the recorded outcome for this compound: `CCOC(OCC)OCC`
inactive

Any idea what this test logged for `Nc1cc([N+](=O)[O-])cc(Cl)c1O` ?
inactive

Given `CC1=CCC(=O)O1` , state the outcome it received in this test.
inactive

Outcome? `Cc1cc(O)c(C(C)(C)C)cc1C(C)(C)C`
inactive

Can you look up the reported call for `Brc1nc2ccccc2s1` for me?
active

Record request — test call for CCCCCCCC/C=C\CCCCCCCC(=O)OCC(O)CO (centres undefined)
inactive

Can you look up the reported call for `FC(F)(F)C(F)(F)C(F)(F)C(F)(F)C(F)(F)C(F)(F)CC[Si](Cl)(Cl)Cl` for me?
inactive

Recorded test outcome, item `OCCCCC(F)(F)C(F)(F)C(F)(F)C(F)(F)F`
inactive

Please share the test call associated with `O=C(Cl)c1ccc(Cl)cc1Cl` .
inactive

----------
Read-out: Monokine induced gamma interferon (MIG), CXCL9 (gene 4283)
Test: BSK_hDFCGF_MIG: BioMAP Diversity Plus: hDFCGF Assay for Monokine induced gamma interferon (MIG) Biomarker Activity (AID 2283063)
Conditions: primary human foreskin fibroblasts; actives raise or lower the signal
Protocol: BSK_hDFCGF is a cell-based, multiplexed-readout assay that uses foreskin fibroblast, a human skin primary cell, with measurements taken at 24 hours after chemical dosing in a 96-well plate.BSK_hDFCGF_MIG is an assay component measured in the BSK_hDFCGF assay. It measures MIG antibody related to regulation of gene expression using ELISA technology.Data from the assay component BSK_hDFCGF_MIG was analyzed into 1 assay endpoint. […]
Activity calls are given as the source filed them. Rule for the calls: active = hit-call score of the fitted dose curve at least 0.9, where 1 is the maximum; inactive = score below 0.9.
// allowed return values: active, inactive

# fetch the recorded call for OCC(O)CC(F)(F)C(F)(F)C(F)(F)C(F)(F)C(F)(F)C(F)(F)C(F)(F)C(F)(F)F (configuration not stated) here
inactive

// outcome(item) with item = `NC(O)(C(F)(F)F)C(F)(F)F`
inactive

Dear colleague, could you share the recorded outcome for `NC(=O)C(F)(F)C(F)(F)C(F)(F)C(F)(F)C(F)(F)C(F)(F)C(F)(F)F` when you have a moment?
inactive

Which result was noted for this compound in the test: `CC(C)(C)c1cc(CCC(=O)NCCCCCCNC(=O)CCc2cc(C(C)(C)C)c(O)c(C(C)(C)C)c2)cc(C(C)(C)C)c1O`
inactive

Any idea what this test logged for `O=C(O)CCC(F)(F)C(F)(F)C(F)(F)F` ?
inactive

Per the assay record, what outcome was assigned to `CO[Si](C)(CCC(F)(F)C(F)(F)C(F)(F)C(F)(F)C(F)(F)C(F)(F)F)OC` ?
inactive

Short answer needed: outcome of this test for `OC(O)C(F)(F)C(F)(F)F` ?
inactive

Please share the test call associated with `NCC(F)(F)C(F)(F)C(F)(F)C(F)(F)C(F)(F)C(F)(F)C(F)(F)C(F)(F)F` .
inactive

What was the test verdict on `NCC(F)(F)C(F)(F)C(F)(F)C(F)(F)C(F)(F)C(F)(F)F` ?
inactive

Hi, sorry to bother you, what did the test record for `O=C(c1ccccc1)c1ccc(O)cc1O` ?
inactive

So what was the verdict on `Brc1nc2ccccc2s1` in this test?
inactive

Just curious, what result did `O=S(=O)(OCC(F)(F)F)C(F)(F)C(F)(F)C(F)(F)C(F)(F)F` get here?
inactive

I would be grateful if you could indicate the recorded call for `CCOC(=O)CC(=O)C(F)(F)C(F)(F)F` .
inactive

Tell me the recorded outcome of this test for `O=C1c2c(O)ccc(Nc3ccc(CCO)cc3)c2C(=O)c2c([N+](=O)[O-])ccc(O)c21` .
active

Record request — test call for CC1=CC2C3C=CC(C3)C2C1C (configuration not stated)
inactive

Kindly provide the recorded test outcome for the following compound: `CNS(=O)(=O)C(F)(F)C(F)(F)C(F)(F)C(F)(F)C(F)(F)C(F)(F)C(F)(F)C(F)(F)F`
inactive

Test call for this compound, please: `O=C=Nc1cccc2c(N=C=O)cccc12`
inactive
